Test: RAM signaling pathway blockade in yeast – S. cerevisiae, Pdr1DBD-CYC8 efflux-inhibited sensitized strain, primary screen (AID 1298);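 note: 0% = DMSO untreated cells without growth and 100% = 10 µM 1-NA-PP1 full growth; higher means more yeast growth rescued from 5-FOA killing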
Settings: S. cerevisiae cbk1-as DSE1-URA3 strain, 5-FOA growth OD615, 2 d; at 50 µM; active compounds read high
MEASURED_QUANTITY: RAM network inhibition (%)
Provide the reading as a plain figure in %.

Example compounds with recorded RAM network inhibition:
COMPOUND: CC1CC(C)(C)Nc2ccc(OC(=O)c3ccco3)cc21 (configuration not stated)
RAM network inhibition (%): 3.36

COMPOUND: CCOc1ccc(/C=C\C(C)=N\O)cc1
RAM network inhibition (%): 2.82

COMPOUND: COc1ccc(CNC(=O)CCCNS(=O)(=O)c2cccc3nonc23)cc1
RAM network inhibition (%): 7.37

COMPOUND: O=C(CC1SC(=Nc2ccccc2)N(CCCO)C1=O)Nc1ccc(Cl)cc1 (configuration not stated)
RAM network inhibition (%): 1.29

COMPOUND: COCC(C)N=Cc1c(O)[nH]c2ccccc12 (configuration not stated)
RAM network inhibition (%): -1.18

query: Reported RAM network inhibition, compound O=S(=O)(NCCc1cn2ccccc2n1)c1ccc2c(c1)OCCO2 : ____
result: 2.25

query: Reported RAM network inhibition, compound CCC(=O)N/C(=N/c1nc(C)cc(C)n1)Nc1cccc(OC)c1 : ____
result: 3.66

query: Reported RAM network inhibition, compound O=C(O)C1CCCCN1S(=O)(=O)c1ccc(Cl)s1 (configuration not stated) : ____
result: -0.42

query: Reported RAM network inhibition, compound COc1ccc(Br)cc1/C=N/n1c(C)nnc1C : ____
result: -0.74

----------
Test: viability gain of MRP-1-high H69AR cells under doxorubicin, pilot screen, MRP-1 activator project, CellTiter-Glo, duplicate (AID 807);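 note: compound pretreatment 18-22 h then 72 h combined with doxorubicin; 0% = doxorubicin alone and 100% = vehicle without doxorubicin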
Details: H69AR viability with doxorubicin, CellTiter-Glo luminescence; at 10 µM; active compounds read high
MEASURED_QUANTITY: viability increase (%)
Provide the reading as a plain figure in %.

Example compounds with recorded viability increase:
COMPOUND: CCC(=O)N1CCc2cc(Br)cc(S(=O)(=O)NCCN3CCOCC3)c21
TEST_VALUE: 0.03
//
COMPOUND: NC(=O)C1CCN(C(=O)CN(c2cccc(C(F)(F)F)c2)S(=O)(=O)c2ccccc2)CC1
TEST_VALUE: -1.48
//
COMPOUND: CCOc1ccccc1N1C(=O)CC(Nc2ccc(N3CCOCC3)cc2)C1=O (stereo not given)
TEST_VALUE: -2.65

query: Reported viability increase, compound CCOC(=O)CN1C(=O)C(O)(CC(=O)c2ccccn2)c2ccccc21 (stereo not given) : ____
result: -4.5

query: Reported viability increase, compound CC(=O)CC(=O)Nc1cccc2c1CCCC2 : ____
result: -1.76

query: Reported viability increase, compound Cc1csc2ncc(C(=O)Nc3ccc(C(F)(F)F)cc3)c(=O)n12 : ____
result: -2.44

----------
Assay: Restrictive medium S. cerevisiae growth inhibition, OD615, pilot screen of yeast lifespan reduction project, restrictive growth control (AID 706);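 note: modified DeaD lifespan yeast strain shifted to restrictive glucose medium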
Details: OD615, 48 h, at 10 µM, active compounds read high
MEASURED_QUANTITY: growth inhibition (%)
Provide the reading as a plain figure in %.

COMPOUND: COCCn1c(SCC(=O)OCc2ccccc2)nc2c1c(=O)[nH]c(=O)n2C
growth inhibition / %: 1.99
--
COMPOUND: COc1cccc(-c2cc(C(=O)N3CCN(c4ncccn4)CC3)c3ccccc3n2)c1
growth inhibition / %: -2.04
--
COMPOUND: Cc1ccc2nc(NC(=O)c3ccc(Cl)s3)sc2c1
growth inhibition / %: -14.8
--
COMPOUND: c1ccc(-n2ncc3c(NCc4cccnc4)ncnc32)cc1
growth inhibition / %: 2.41
--
COMPOUND: CCCC(=O)Nc1nc(-c2ccc3c(c2)OCCO3)cs1
growth inhibition / %: -6.14

query: Reported growth inhibition, compound CCOc1ccc(N(CC(=O)OC)S(=O)(=O)c2c(C)noc2C)cc1 : ____
result: -0.545

query: Reported growth inhibition, compound O=C(NCCc1ccc(Cl)cc1)c1nnc(Cc2ccc(Cl)cc2)o1 : ____
result: 3.52

----------
Assay: viability gain of MRP-1-high H69AR cells under doxorubicin, pilot screen, MRP-1 activator project, CellTiter-Glo, duplicate (AID 807);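 note: compound pretreatment 18-22 h then 72 h combined with doxorubicin; 0% = doxorubicin alone and 100% = vehicle without doxorubicin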
Details: H69AR viability with doxorubicin, CellTiter-Glo luminescence; at 10 µM; active compounds read high
This section presents compounds with their documented viability increase values.
Provide the reading as a plain figure in %.

Example compounds with recorded viability increase:
COMPOUND: CNC(=O)c1sc2nc(-c3ccc(OC)cc3)cn2c1C
MEASUREMENT_UNITS: %
viability increase: 1.57
--
COMPOUND: CN(C)c1nc(Oc2ccc(C(=O)OCC(=O)Nc3ccccc3)cc2)nc(N(C)C)n1
MEASUREMENT_UNITS: %
viability increase: -3.31
--
COMPOUND: CCC(C)(C(=O)NC1CCCCC1)N(Cc1ccco1)C(=O)CNC(=O)c1ccccc1 (centres undefined)
MEASUREMENT_UNITS: %
viability increase: -3.39
--
COMPOUND: Cc1cc(C)n2nc(SCC(=O)Nc3ccc(F)cc3)nc2n1
MEASUREMENT_UNITS: %
viability increase: -1.21
--
COMPOUND: COCCNC(=O)CN(c1ccc(C)cc1)S(=O)(=O)c1ccc(SC)cc1
MEASUREMENT_UNITS: %
viability increase: -0.9
--
COMPOUND: COCCCN1Cc2cccc(C(=O)O)c2C1=O
MEASUREMENT_UNITS: %
viability increase: -2.13
--
COMPOUND: CC1CCc2nn(CC(=O)NCc3ccco3)cc2C1 (centres undefined)
MEASUREMENT_UNITS: %
viability increase: -3.13
--
COMPOUND: Cc1ccc(C2CC(c3cccc(Br)c3)n3nc(N)nc3N2)cc1 (centres undefined)
MEASUREMENT_UNITS: %
viability increase: -1.6

query: Reported viability increase, compound Cc1c2cnn(-c3ccccc3)c(=O)c2c(C)n1CCCC(=O)N1CCN(C)CC1 : ____
result: -1.33

query: Reported viability increase, compound CC(c1ccccc1)C1C(C#N)=C(N)OC2=C1C(=O)CCC2 (centres undefined) : ____
result: -0.93

query: Reported viability increase, compound CCSc1nnc(NC(=O)c2cccc(OCc3c(C)noc3C)c2)s1 : ____
result: 0.55

query: Reported viability increase, compound COc1ccc(CCNC(=O)c2c(-c3ccccc3)noc2C)cc1OC : ____
result: 0.19

query: Reported viability increase, compound O=C(CN1C(=O)CSc2ncccc21)N1CCOCC1 : ____
result: -0.22

query: Reported viability increase, compound CC(C)(C)NC(=O)CSc1nccn1Cc1ccccc1 : ____
result: -1.52

query: Reported viability increase, compound CCCCOc1ccccc1C1C(C(=O)OC)=CN(CC)C=C1C(=O)OC : ____
result: -5.35

query: Reported viability increase, compound CCCCOC(=O)c1ccc(NC(=O)CSCc2n[nH]c(=O)[nH]2)cc1 : ____
result: 0.11

query: Reported viability increase, compound CCOC(=O)N1CCN(c2cc(C)nc3nc(C)nn23)CC1 : ____
result: -1.28

query: Reported viability increase, compound CCOC(=O)Cn1c(=O)oc2cc(S(=O)(=O)NCC3CCCO3)ccc21 (centres undefined) : ____
result: -1.7

query: Reported viability increase, compound O=C(O)COc1ccc2c(c1)OCCO2 : ____
result: 0.55

query: Reported viability increase, compound CCCN(CCC(=O)Nc1ccccc1F)CC1CC1 : ____
result: -1.44

query: Reported viability increase, compound CCOc1ccc(C(=O)NCc2ccncc2)cc1OCC : ____
result: -0.92

query: Reported viability increase, compound O=C(c1cc2nc(-c3ccco3)cc(C(F)(F)F)n2n1)N1CCCCCC1 : ____
result: -3.73

query: Reported viability increase, compound Cc1cc(NC(=O)COn2nnc3ccc(Cl)cc32)no1 : ____
result: 1.22

query: Reported viability increase, compound Cc1nc2ccccc2c2oc(C(=O)Nc3ccc4c(c3)OCCO4)cc12 : ____
result: -1.19

----------
Test: growth suppression of beta-catenin knockout HCT116, pilot screen, human colon tumor cells (AID 823);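 note: 0% = wells killed by 20 µM Hyamine and 100% = untreated DMSO cell wells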
Details: CellTiter-Glo, 60 h, at 10 µM, active compounds read low
Results filed as inconclusive are left out.
MEASURED_QUANTITY: viability (%)
Provide the reading as a plain figure in %.

Example compounds with recorded viability:
COMPOUND: CC(Oc1ccc(Cl)cc1Cl)c1nc(-c2ccccn2)no1 (stereo not given)
MEASUREMENT_UNITS: %
TEST_VALUE: 99.1
--
COMPOUND: CC1(C)C(=O)OC(c2cc(Br)ccc2O)C(C)(C)C1=O (stereo not given)
MEASUREMENT_UNITS: %
TEST_VALUE: 90.2
--
COMPOUND: C=CCc1ccccc1OCC(O)CN1CCN(c2ccccc2OC)CC1 (stereo not given)
MEASUREMENT_UNITS: %
TEST_VALUE: 56.3

query: Reported viability, compound CCOC(=O)C1CCCN(C(=O)CN(c2ccc(OC)cc2)S(=O)(=O)c2c(C)noc2C)C1 (stereo not given) : ____
result: 102

query: Reported viability, compound CC1=C(C(=O)OCCOc2ccccc2)C(c2ccc(C)o2)C2=C(CC(C)(C)CC2=O)N1 (stereo not given) : ____
result: 78.2

query: Reported viability, compound COc1ccc(C2CC(c3ccc(Cl)cc3Cl)Nc3nc(N)nn32)cc1OC (stereo not given) : ____
result: 88.2

query: Reported viability, compound C=CCOC(=O)COc1ccc2c(C)c(C)c(=O)oc2c1 : ____
result: 96.6

query: Reported viability, compound O=S(=O)(CCc1nnc(-c2ccccc2)o1)c1ccc2ccccc2c1 : ____
result: 89.8

query: Reported viability, compound O=C(Nc1scc(-c2cccs2)c1C(=O)O)c1cccs1 : ____
result: 103

query: Reported viability, compound O=C(Nc1ccc(N2CCOCC2)cc1)NC1CCCCC1 : ____
result: 103

query: Reported viability, compound COc1ccc(CCNC(=O)CN2CCOc3ccccc32)cc1OC : ____
result: 100

query: Reported viability, compound CN(C)C=NC(=O)/C(C#N)=C1\CCc2ccccc2N1 : ____
result: 95.2

query: Reported viability, compound C=C(C)CSc1nc2c(cc1C#N)CCC2 : ____
result: 99.4

query: Reported viability, compound CCOc1ccccc1NC(=O)CN1C(=O)COc2ccc(Cl)cc21 : ____
result: 91.7
